- Test system: SKOV3
- measurement.protocol: Confirmatory qHTS for gynecologic anti-cancer compounds from libraries of approved drugs and bioactive compounds; note: nearly all actives have a fitted effect of over 55% in size
- cond: gynecologic cancer cell panel viability, ATPlite luminescence, 48 h; series mostly up to 57.6 µM
Records with an inconclusive call do not appear. The source made the active and inactive calls. Calls come from the whole dose curve; as a rule, active = well fitted cell-killing curve with a large enough effect; inconclusive = small, poorly fitted or top-dose-only effect, or effect the other way; inactive = no such curve, though single readings can be large or run the other way.
Respond with a class label; see 1.0 for active, 0.0 for inactive

[[record]]
entry_smiles = "COc1cc(N2CCC(N(C)C)CC2)ccc1Nc1ncc(Cl)c(Nc2ccccc2P(C)(C)=O)n1"
test_system = "SKOV3"
class_name = 1.0

[[record]]
entry_smiles = "NS(=O)(=O)c1ccc(Nc2nc(OCC3CCCCC3)c3[nH]cnc3n2)cc1"
test_system = "SKOV3"
class_name = 0.0

[[record]]
entry_smiles = "CC[C@H](CC#N)OC(=O)N[C@@H](C)c1cccc(NC(=O)Nc2ccc(-c3cnco3)c(OC)c2)c1"
test_system = "SKOV3"
class_name = 0.0

[[record]]
entry_smiles = "CC(C)n1nc(-c2cc3cc(O)ccc3[nH]2)c2c(N)ncnc21"
test_system = "SKOV3"
class_name = 1.0

[[record]]
entry_smiles = "C[C@]12CCC(=O)C=C1CC[C@@H]1[C@@H]2[C@@H](O)C[C@@]2(C)[C@H]1CC[C@]2(O)C(=O)CO"
test_system = "SKOV3"
class_name = 0.0

[[record]]
entry_smiles = "COc1cccc2c1C(=O)c1c(O)c3c(c(O)c1C2=O)C[C@@](O)(C(=O)CO)C[C@@H]3O[C@H]1C[C@H](N)[C@H](O[C@@H]2CCCCO2)[C@H](C)O1"
test_system = "SKOV3"
class_name = 1.0

[[record]]
entry_smiles = "Cc1ccc(NC(=O)c2ccc(CN3CCN(C)CC3)cc2)cc1Nc1nccc(-c2cccnc2)n1"
test_system = "SKOV3"
class_name = 0.0


q: Hi, do you know how "CCc1cccc(CC)c1NC(=O)N1Cc2[nH]nc(NC(=O)c3ccc(N4CCN(C)CC4)cc3)c2C1" came out in this test?
a: 0.0
